Assay: NCI Yeast Anticancer Drug Screen. Data for the mec2-1 strain (AID 157)
Details: S. cerevisiae mec2-1 strain, at 5.0 µM (retest, dose inferred, filed as 0.5), stronger effect = higher value
This is part of a sample that, as a whole, favours compounds with a hit. Of some 79,000 tested, about 15% had one in any assay.
measured_metric: growth inhibition (%)

compound=O=Nc1cc(-c2ccccc2)c2ccccc2c1O test_result=14
compound=CCOCCC(=O)NNc1ccccc1 test_result=0
compound=O=C(CC(=O)c1ccccc1)CC1(O)CCCCC1 test_result=2
compound=CC(C)(CCBr)[N+](=O)[O-] test_result=-47
compound="CCCCCCCCCCCCCCCCC1CCc2ccccc21 (configuration not stated)" test_result=-2
compound=Cc1ccc(C)c(N2C(=O)C(=O)C(c3nc4ccccc4o3)C(=O)C2=O)c1 test_result=18
compound="Cc1c(C2CC(=O)NC2=O)c2ccccc2n1C (configuration not stated)" test_result=-1
compound="CCCCCN(CCCCC)CC(O)c1cc2ccccc2c2ccccc12 (configuration not stated)" test_result=11
compound=Cc1cc(C)c(C(=O)/C=C/C(=O)c2ccccc2)c(C)c1 test_result=89
compound=COc1ccc(CN(C)c2c(C)ccc3ccccc23)cc1 test_result=2
compound=COc1ccc(/C=c2\sc3nnc(CCC(=O)Nc4cccc(C(F)(F)F)c4)n3c2=O)cc1 test_result=0
compound="CC1(C(Cl)(Cl)Cl)C=CC(O)(C#CC2(O)C=CC(C)(C(Cl)(Cl)Cl)C=C2)C=C1 (configuration not stated)" test_result=91

====

Experiment: NCI Yeast Anticancer Drug Screen. Data for the bub3 strain (AID 167)
Details: S. cerevisiae bub3 mutant strain, at 5.0 µM (retest, dose inferred, filed as 0.5), stronger effect = higher value
Description: Growth inhibition of yeast strains with defined genetic alterations is measured as a screen for potential anti-cancer activity. Selected strains with alterations in DNA damage repair or cell cycle control were exposed to compounds and growth inhibition was measured relative to vehicle treated controls. The strain used in this assay is bub3
The panel holds about 79,000 compounds, 15% with a hit somewhere; the sample as a whole holds those more often.
Mark 0.0 for growth inhibition values under 40%, and 1.0 for everything at or above.

compound=Cc1cc2nc(CC(=O)c3ccncc3)c(CC(=O)c3ccncc3)nc2cc1C qualitative_label=0.0
compound=COc1ccc2c(c1)CCc1c-2ccc(C)c1CCC(=O)O qualitative_label=0.0
compound="O=C1c2cc3c(cc2CC1Br)CCC3 (configuration not stated)" qualitative_label=1.0
compound="CC1CC(C)CC(NC2=NCCO2)C1 (configuration not stated)" qualitative_label=0.0
compound="Nc1nc(N)c2cc(S(=O)c3ccc4ccccc4c3)ccc2n1 (configuration not stated)" qualitative_label=0.0
compound=NC(=O)/C=C/C(=O)c1c(Cl)cccc1Cl qualitative_label=1.0
compound="COc1ccccc1NC(=O)CC(=O)N1N=C(C)C(N=Nc2ccc(C(=O)O)cc2)C1=O (configuration not stated)" qualitative_label=0.0
compound=Nc1cc2c(c[n+](CCCCCCCCCC[n+]3cc4c5ccccc5c(N)cc4c4ccccc43)c3ccccc23)c2ccccc12 qualitative_label=1.0
compound=Oc1ccc2ccc3ccccc3c2c1 qualitative_label=0.0
compound=O=C(Nc1c(Cl)cccc1Cl)OCCOc1ccc(Cl)cc1Cl qualitative_label=0.0
compound="CC(C)(C)c1ccc(CN2CCN(C(c3ccccc3)c3ccc(Cl)cc3)CC2)cc1 (configuration not stated)" qualitative_label=1.0
compound=CCCCCCCCC1CCNCC1 qualitative_label=0.0

====

growth inhibition for assorted molecules
Experiment: NCI Yeast Anticancer Drug Screen. Data for the mlh1 rad18 strain (AID 175)
Settings: S. cerevisiae mlh1 rad18 strain growth inhibition; at 50.0 µM (retest, dose inferred, filed as 5.0); stronger effect = higher value
This is part of a sample that, as a whole, favours compounds with a hit. Of some 79,000 tested, about 15% had one in any assay.
measured_metric: growth inhibition (%)

molecule="O=C(CC(c1ccccc1Cl)C(C(=O)O)c1ccccc1)c1ccccc1 (stereo unspecified)" measured_metric="growth inhibition" test_result=78
molecule=O=C(Nc1cc(Cl)cc(Cl)c1)OCCCl measured_metric="growth inhibition" test_result=93
molecule=O=C(/C=C/C(=O)c1ccc(O)cc1)c1ccccc1 measured_metric="growth inhibition" test_result=94
molecule=CCN(CC)CCOc1ccc(/C=C/c2ccccc2)cc1 measured_metric="growth inhibition" test_result=99
molecule=Cc1cc(Br)c(N2C3=C(CC4=C2CCCC4=O)C(=O)CCC3)c(Br)c1 measured_metric="growth inhibition" test_result=97
molecule="N#CC(C#N)C(C#N)c1ccc(Cl)c(Cl)c1 (stereo unspecified)" measured_metric="growth inhibition" test_result=100
molecule=Oc1c(Br)cc(Cl)cc1C(c1cc(Cl)cc(Br)c1O)C(Cl)(Cl)Cl measured_metric="growth inhibition" test_result=98
molecule=CN(C)C(=O)c1ccc(SC(=S)NCc2ccccc2)cc1 measured_metric="growth inhibition" test_result=42
molecule=CCN(CC)CCOC(=O)c1ccc(N=Nc2cc(Cl)c(C)cc2O)cc1 measured_metric="growth inhibition" test_result=99
molecule="CC(=O)Nc1ccc(/S(=N\\S(=O)(=O)c2ccc(C)cc2)c2ccc(NC(C)=O)cn2)cc1 (stereo unspecified)" measured_metric="growth inhibition" test_result=7
molecule=N#Cc1ccc([N+](=O)[O-])o1 measured_metric="growth inhibition" test_result=99

====

Assay: NCI Yeast Anticancer Drug Screen. Data for the bub3 strain (AID 167)
Conditions: S. cerevisiae bub3 mutant strain, at 50.0 µM (retest, dose inferred, filed as 5.0)
The panel holds about 79,000 compounds, 15% with a hit somewhere; the sample as a whole holds those more often. The source made the active and inactive calls. No stated cut-off is given here; in the data, active means growth inhibition above about 70%; inactive means the rest.
Outcome codes: active, inactive

molecule=CCN(CC)C(=O)C1(OC(C)=O)CCCCC1 qualitative_label=inactive
molecule=Clc1ccc(/C=C\c2ccncc2)cc1 qualitative_label=inactive
molecule="O=C(O)CC(CCCc1ccccc1)C(=O)O (configuration not stated)" qualitative_label=inactive
molecule=C=CCOc1ccc(N=NC(C#N)C#N)cc1 qualitative_label=active
molecule=COc1ccc(OC)c(N=Nc2c(C)[nH]n(C(N)=S)c2=O)c1 qualitative_label=inactive
molecule=CC#Cc1cc2c(cc1O)CC[C@@H]1[C@@H]2CC[C@]2(C)[C@@H](O)CC[C@@H]12 qualitative_label=active
molecule="C[N+](C)(C)c1nc(N)nc2c1ncn2C1OC(CO)C(O)C1O (configuration not stated)" qualitative_label=inactive
molecule=CC(C)/C=N/N(CCOC(=O)Nc1ccccc1)C(=O)Nc1ccccc1 qualitative_label=inactive
molecule="O=C(O)C(Br)C(Br)c1ccccc1[N+](=O)[O-] (configuration not stated)" qualitative_label=active
molecule=N#Cc1ccc([N+](=O)[O-])o1 qualitative_label=active
molecule=COC(=O)c1nc(=S)[nH]c(C(=O)OC)c1C(=O)c1ccc2ccccc2c1 qualitative_label=active
molecule=COc1cc2oc(-c3ccc(O)cc3O)c(CC=C(C)C)c(=O)c2c(O)c1/C=C/C(C)C qualitative_label=active
molecule=C[n+]1c(-c2cccc(OCCOCCOc3cccc(-c4c5cc(N)ccc5c5ccc(N)cc5[n+]4C)c3)c2)c2cc(N)ccc2c2ccc(N)cc21 qualitative_label=active
molecule=COC(=O)c1cccc2cccc(C(=O)Nc3ccc(Cl)cc3)c12 qualitative_label=active
molecule=CCCCNCCCCCCCCCCCl qualitative_label=active
molecule=COc1ccc2nc3cc(Cl)ccc3c(NCCNc3c4ccc(Cl)cc4nc4ccc(OC)cc34)c2c1 qualitative_label=active
molecule="CN1c2ccccc2C(C)(C)C12C=Cc1cc(O)ccc1O2 (configuration not stated)" qualitative_label=inactive
molecule=O=Nc1ccccc1N=O qualitative_label=active
molecule="O=C1C2(Cl)C(Cl)=C(Cl)C1(Cl)C1(Cl)C(Cl)=C(Cl)C(=O)C21Cl (configuration not stated)" qualitative_label=active
molecule=COc1cnn(-c2ccccc2)c(=O)c1SCc1ccc(Cl)c(Cl)c1 qualitative_label=inactive
molecule="CCOC(=O)NC(NC(=O)OCC)C(=O)Nc1cccc2c(OC(=O)C(NC(=O)OCC)NC(=O)OCC)c(N=Nc3ccc(S(=O)(=O)Nc4nccs4)cc3)cc(N=Nc3ccc(S(=O)(=O)Nc4nccs4)cc3)c12 (tested in a mixture with another compound)" qualitative_label=inactive
molecule="COc1ccc(C2CC(CO)ON2c2ccccc2)cc1 (configuration not stated)" qualitative_label=inactive

====

Test: NCI Yeast Anticancer Drug Screen. Data for the rad50 strain (AID 155);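 also: 0% = growth of vehicle-only cultures of the same strain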
Conditions: S. cerevisiae rad50 strain growth inhibition; at 50.0 µM; stronger effect = higher value
The panel holds about 79,000 compounds, 15% with a hit somewhere; the sample as a whole holds those more often.
Mark Not satisfied for growth inhibition values under 90%, and Satisfied for everything at or above.

molecule=CS(=O)(=O)c1snc(N)c1C#N qualitative_label="Not satisfied"
molecule="O=C(CC1(O)C(=O)Nc2c(Cl)cc(Cl)cc21)c1ccc(Br)cc1 (configuration not stated)" qualitative_label=Satisfied
molecule=Cc1cc(N(CCC#N)CCC#N)ccc1/C(N=Nc1cccc([N+](=O)[O-])c1)=N/NC(=O)c1cc(Cl)ccc1O qualitative_label="Not satisfied"
molecule=C[N+](C)=c1ccc2nc3c(cc(NCCCNc4cc5oc6cc(=[N+](C)C)ccc-6nc5c5ccccc45)c4ccccc43)oc-2c1 qualitative_label="Not satisfied"
molecule=Cc1c2cc(Cl)ccc2cc2c1ccc1ccccc12 qualitative_label=Satisfied
molecule=COc1ccc(/C=C(\C#N)c2ccccc2)cc1OC qualitative_label="Not satisfied"
molecule="CCOC(=O)C(C(=O)OCC)C1(c2ccccc2)OC(=O)c2ccccc21 (configuration not stated)" qualitative_label="Not satisfied"
molecule="COc1cc(C2SC(N)=Nc3c2c(C)nn3C(=O)c2ccccc2O)cc(OC)c1OC (configuration not stated)" qualitative_label="Not satisfied"
molecule="CC(=O)OC1(C)C(=C(Cl)Cl)C2c3ccccc3C1c1ccccc12 (configuration not stated)" qualitative_label=Satisfied
molecule=COc1ccc2nc3cc(Cl)ccc3c(NCCNc3c4ccc(Cl)cc4nc4ccc(OC)cc34)c2c1 qualitative_label=Satisfied
molecule=CC(C)(C)c1ccc(O)c(C2CCCCC2)c1 qualitative_label=Satisfied
molecule=CN(C)c1cccc(F)c1C(=O)NC(=O)Nc1ccc(Cl)cc1 qualitative_label="Not satisfied"
molecule=CCCNC(=O)OCc1ccc(NCCN(CC)CC)c2c(=O)c3ccccc3sc12 qualitative_label="Not satisfied"
molecule=O=c1[nH]c2ccccc2nc1CBr qualitative_label="Not satisfied"
molecule=O=[N+]([O-])c1ccc(C2=CSc3ccccc3N2)cc1 qualitative_label="Not satisfied"
molecule=CN=C(N)N/N=C(\C)c1ccc2c(c1)Cc1cc(/C(C)=N/NC(N)=NC)ccc1-2 qualitative_label="Not satisfied"
molecule=O=C(NNc1nc(-c2ccccc2)cs1)Nc1ccccc1 qualitative_label="Not satisfied"
